Values from patent US20220031842A1

Target: T1, LAG-3 extracellular domain with a Flag tag (human, UniProt P18627 23-434)
T1 construct: also called LAG-3-Flag; LAG-3-Flag antigen
T1 sequence: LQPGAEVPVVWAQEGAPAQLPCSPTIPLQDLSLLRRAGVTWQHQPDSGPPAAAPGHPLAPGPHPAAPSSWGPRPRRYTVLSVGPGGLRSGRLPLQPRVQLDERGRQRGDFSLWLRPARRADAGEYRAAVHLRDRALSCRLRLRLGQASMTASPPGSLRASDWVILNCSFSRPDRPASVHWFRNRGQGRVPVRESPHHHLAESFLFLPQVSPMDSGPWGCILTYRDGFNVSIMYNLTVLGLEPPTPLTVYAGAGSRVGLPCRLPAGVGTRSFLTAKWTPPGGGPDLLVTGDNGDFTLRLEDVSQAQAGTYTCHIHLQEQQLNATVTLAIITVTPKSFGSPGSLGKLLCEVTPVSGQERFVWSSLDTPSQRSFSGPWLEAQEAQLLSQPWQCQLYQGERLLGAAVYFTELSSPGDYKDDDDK
Assay: SPR (Biacore), antibody captured on anti-human capture chip, LAG-3-Flag in flow
measureName: log10 of Kd (log10 of the value in nM)

>  <binder>
mAb303 (antibody, V domains shown, Murine hybridoma antibody; also called LAG-3 antibody mAb303; hybridoma clone mAb303) VH: EVQLQQSGPVLVKPGASVKMSCKASGYTLTDYYMNWVKQSHGKSLEWIGVINPYNGDTAYNQKFKGKATLTVDKSSNTAYMEINSLTSEDSAVYYCTRDDGYYDYYFDVWGTGTTVTVSS VL: DIQMTQSPSSLSASLGERVILTCRASQDIGSRLNWLQQGPDGTFKRLIYATSTLDSGVPKRFSGSRSGSDFSLTISSLESEDFVDYYCLQLASSPPTFGGGTKLEIK

>  <log10 of Kd>
-1.13

$$$$
>  <binder>
Hu229-014 (antibody, human IgG4 S228P, kappa, V domains shown, Humanized mAb229) VH: QVQLVQSGSELKKPGASVKVSCKASGYTFTTSGMSWVKQAPGQGLKWMGWINTYSGVPTYADDFKGRFVFSLDTSVSTAYLQISSLKAEDTATYYCARDNYDARDVYYYAMDYWGQGTTVTVSS VL: DIQMTQSPSSLSASVGDRVTITCRASENIYSNLAWYQQKPGKAPKLLVYAATNLADGVPSRFSGSGSGTQYTLTISSLQPEDFATYYCQHFWITPWTFGGGTKVEIKR

>  <log10 of Kd>
-1.43

$$$$
>  <binder>
Hu303-014 (antibody, human IgG4 S228P, kappa, V domains shown, Humanized mAb303) VH: QVQLVQSGAEVKKPGASVKVSCKASGYTLTDYYMNWVRQAPGQRLEWMGVINPYNGDTAYNQKFKGRVTITVDKSASTAYMELSSLRSEDTAVYYCTRDDGYYDYYFDVWGQGTTVTVSS VL: DIQMTQSPSSLSASVGDRVTITCRASQDIGSRLNWYQQKPGKAPKLLIYATSTLDSGVPSRFSGSGSGTDFTLTISSLQPEDFATYYCLQLASSPPTFGGGTKVEIKR

>  <log10 of Kd>
-0.31

$$$$
>  <binder>
Hu303-006 (antibody, human IgG4 S228P, kappa, V domains shown, Humanized mAb303) VH: QVQLVQSGAEVKKPGASVKVSCKASGYTFTDYYMNWVRQAPGQRLEWMGVINPYNGDTAYNQKFKGRVTITRDTSASTAYMELSSLRSEDTAVYYCARDDGYYDYYFDVWGQGTTVTVSS VL: DIQMTQSPSSLSASVGDRVTITCRASQDIGSRLNWYQQKPGKAPKRLIYATSTLDSGVPKRFSGSRSGTDFTLTISSLQPEDFATYYCLQLASSPPTFGGGTKVEIKR

>  <log10 of Kd>
-1.12

$$$$
>  <binder>
Hu229-019 (antibody, human IgG4 S228P, kappa, V domains shown, Humanized mAb229) VH: QVQLVQSGSELKKPGASVKVSCKASGYTFTTSGMSWVKQAPGQGLKWMGWINTYSGVPTYADDFKGRFVFSLDTSVSTAYLQISSLKAEDTATYFCARDNYDARDVYYYAMDYWGQGTTVTVSS VL: DIQMTQSPSSLSASVGDRVTITCRASENIYSNLAWYQQKPGKSPKLLVYAATNLADGVPSRFSGSGSGTQYTLTISSLQPEDFATYYCQHFWITPWTFGGGTKVEIKR

>  <log10 of Kd>
-1.14

$$$$
